pIC50: −log10 of the molar value.
This document collects pIC50 values reported for HDAC3 (Homo sapiens, UniProt O15379).
Parameter measured: pIC50

Check out these entries, answers already filled in.
compound="O=C(CCCCCCn1cccc1)NO [Compound 5a, N-hydroxy-7-(1H-pyrrol-1-yl)heptanamide]" result_value=6.89
compound=O=C(CCCCCCn1ccc2cc(F)ccc21)NO result_value=8.74
compound=N#Cc1ccc2c(ccn2CCCCCCC(=O)NO)c1 result_value=8.93
compound=CC(=O)c1cccn1CCc1ccc(C(=O)Nc2ccccc2N)cc1 result_value=5.97

P. CC(=O)c1cccn1CCCCCC(=O)NO
Q. CC(=O)c1cccn1Cc1cn(CCc2ccc(C(=O)Nc3ccccc3N)cc2)nn1 [Compound 19a]
Dear colleague, could you let me know whether P or Q has the lower recorded pIC50? Thanks. Give the chosen item's label as your response.
Q
(Q: 5.86, P: 6.86)

----------
Protocol details: Pharmacokinetic study in male ICR mice
Type: in vivo
Experimental parameters: mouse, plasma, po, 5 mg/kg, read-out: F (oral bioavailability)
Parameter measured: bioavailability (%)
Please state the figure in %; there is no need to write the unit.

Which value of bioavailability has been reported for CC(=O)c1cccn1CCc1ccc(C(=O)Nc2ccccc2N)cc1 [Compound 20] in the records?
5

----------
System name: HDAC1 (Homo sapiens, UniProt Q13547);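 also: HTRF detection with streptavidin-XL665 plus Eu(K)-labelled anti-H3K9me0 antibody, two independent runs with duplicate wells per concentration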
Sequence (Q13547 whole entry): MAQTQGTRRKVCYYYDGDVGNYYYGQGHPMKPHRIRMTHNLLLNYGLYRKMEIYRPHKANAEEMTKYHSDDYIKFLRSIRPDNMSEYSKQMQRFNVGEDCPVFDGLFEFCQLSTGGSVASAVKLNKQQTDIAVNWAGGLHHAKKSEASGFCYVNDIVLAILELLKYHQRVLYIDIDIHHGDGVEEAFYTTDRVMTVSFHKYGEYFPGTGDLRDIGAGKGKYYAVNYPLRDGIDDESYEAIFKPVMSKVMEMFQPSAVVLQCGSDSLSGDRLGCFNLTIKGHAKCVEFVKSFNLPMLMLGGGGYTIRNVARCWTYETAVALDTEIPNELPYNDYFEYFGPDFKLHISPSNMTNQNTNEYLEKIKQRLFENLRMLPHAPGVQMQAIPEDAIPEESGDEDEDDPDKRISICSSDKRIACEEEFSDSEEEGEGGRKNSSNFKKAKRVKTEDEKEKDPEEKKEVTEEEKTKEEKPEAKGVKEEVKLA
Parameter measured: IC50 (µM)

a. CC(=O)c1cccn1Cc1ccc(/C=C/C(=O)NO)cc1
b. CC(=O)c1cccn1CCCCCC(=O)NO
c. O=C(CCCCCCn1cccc1C(=O)C(F)(F)F)NO
Ranking by IC50 (descending) is requested for the entries above. Answer format: the labels, ordered as requested.
a, b, c

----------
System name: HDAC6 (Homo sapiens)
Sequence (Q9UBN7 whole entry): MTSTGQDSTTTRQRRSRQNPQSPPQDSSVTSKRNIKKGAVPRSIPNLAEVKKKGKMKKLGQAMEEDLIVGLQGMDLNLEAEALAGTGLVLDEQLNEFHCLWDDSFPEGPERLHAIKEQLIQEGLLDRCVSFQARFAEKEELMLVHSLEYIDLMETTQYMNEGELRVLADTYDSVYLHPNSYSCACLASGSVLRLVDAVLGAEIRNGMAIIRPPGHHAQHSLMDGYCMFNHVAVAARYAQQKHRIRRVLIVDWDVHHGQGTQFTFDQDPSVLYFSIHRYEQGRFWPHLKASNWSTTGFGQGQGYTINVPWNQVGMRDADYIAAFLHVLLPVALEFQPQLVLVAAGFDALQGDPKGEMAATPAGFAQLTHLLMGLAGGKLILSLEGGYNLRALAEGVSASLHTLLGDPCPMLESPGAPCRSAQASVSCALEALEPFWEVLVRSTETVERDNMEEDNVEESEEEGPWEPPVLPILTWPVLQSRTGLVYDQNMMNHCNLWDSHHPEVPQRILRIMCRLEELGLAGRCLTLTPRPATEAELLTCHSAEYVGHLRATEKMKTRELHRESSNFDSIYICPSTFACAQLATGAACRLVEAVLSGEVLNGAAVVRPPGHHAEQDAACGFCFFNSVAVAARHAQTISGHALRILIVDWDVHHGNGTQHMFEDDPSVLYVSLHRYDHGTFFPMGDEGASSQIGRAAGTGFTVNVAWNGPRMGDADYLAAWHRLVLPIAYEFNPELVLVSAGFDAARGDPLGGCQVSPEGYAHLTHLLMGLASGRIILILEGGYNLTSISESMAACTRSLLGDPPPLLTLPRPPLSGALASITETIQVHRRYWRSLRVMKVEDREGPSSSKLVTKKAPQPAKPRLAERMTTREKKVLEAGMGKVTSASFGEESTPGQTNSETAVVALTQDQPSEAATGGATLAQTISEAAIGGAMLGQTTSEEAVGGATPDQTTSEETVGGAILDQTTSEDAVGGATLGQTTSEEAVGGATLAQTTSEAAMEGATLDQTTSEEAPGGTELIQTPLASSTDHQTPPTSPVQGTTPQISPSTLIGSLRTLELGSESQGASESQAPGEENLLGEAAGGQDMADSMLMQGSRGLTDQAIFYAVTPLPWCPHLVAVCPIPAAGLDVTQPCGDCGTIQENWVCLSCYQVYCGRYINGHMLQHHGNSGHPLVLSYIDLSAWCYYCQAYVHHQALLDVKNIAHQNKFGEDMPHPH
pIC50: −log10 of the molar value.
Parameter measured: pIC50

compound="O=C(CCCCCCn1ccc2cc(F)ccc21)NO [Compound 5i]" result_value="≥ 8.77"
compound="CC(=O)c1cccn1CCCC(=O)NO [Compound 3a]" result_value="< 5.00"
compound="CC(=O)c1cccn1Cc1cn(CCc2ccc(C(=O)Nc3cc(F)c(F)cc3N)cc2)nn1 [Compound 19d]" result_value="< 5.00"
compound="CC(=O)c1cccn1Cc1cn(CCc2ccc(C(=O)Nc3ccccc3N)cc2)nn1 [Compound 19a]" result_value="< 5.00"

In the following, a different compound is considered.
Which value of pIC50 has been reported for COc1ccc(NC(=O)c2ccc(CCn3cc(Cn4cccc4C(C)=O)nn3)cc2)c(N)c1 [Compound 19e] in the records?
< 5.00
